Measured values drawn from patent EP0172962A1 for this set.

- method-summary: Acute toxicity
- recorded-conditions: in vivo, iv; intravenously
measure: LD50

get_value(item= CCCCC[C@H](O)/C=C/[C@H]1C(=O)C=C[C@@H]1C/C=C\CCCC(=O)NCCCNC(=O)CCC/C=C\C[C@H]1C=CC(=O)[C@@H]1/C=C/[C@@H](O)CCCCC [Example 1(e)] , readout=LD50) returns > 100 mg/kg
